From: the supplement of paper PMC10326909

# Protocol summary: ESI positive response factor (isotope-corrected peak area per molar concentration) in SFC/ESI/HRMS (area units per M); higher = higher ionization efficiency;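 further: standards in acetonitrile/water run in triplicate on a zwitterionic HILIC column, CO2–methanol gradient containing 20 mmol/L ammonium acetate, postcolumn makeup flow, Orbitrap full-scan detection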
# Test conditions: 1.75 µM
Entries and their ESI positive response factor
Just the number, please.

Below, 2 molecules whose answers are already recorded.
>  <Molecule>
Cn1c(N)c(NC=O)c(=O)n(C)c1=O

>  <Readout value>
2.18e+15

$$$$
>  <Molecule>
CCN[C@H]1C[C@H](C)S(=O)(=O)c2sc(S(N)(=O)=O)cc21 [Dorzolamide]

>  <Readout value>
1.24e+16

$$$$

Q: Any idea what ESI positive response factor was measured for `O=C(O)Cc1ccccc1Nc1c(Cl)cccc1Cl` ?
Result: 5.19e+15

====

# Protocol summary: ESI positive response factor (isotope-corrected peak area per molar concentration) in SFC/ESI/HRMS (area units per M); higher = higher ionization efficiency
# Test conditions: 0.0875 µM
Measured attribute: ESI positive response factor
Just the number, please.

Below, 5 compounds whose answers are already recorded.
>  <Compound>
CNCCC(Oc1ccc(C(F)(F)F)cc1)c1ccccc1 (configuration not stated)

>  <ESI positive response factor>
1.1e+17

$$$$
>  <Compound>
Cn1cnc2c1c(=O)n(CCCC(=O)O)c(=O)n2C

>  <ESI positive response factor>
2.2e+16

$$$$
>  <Compound>
COC(=O)CCCCCCCCC(=O)OC [Dimethylsebacate]

>  <ESI positive response factor>
6.02e+16

$$$$
>  <Compound>
CCOC(=O)[C@H](CCc1ccccc1)N[C@@H](C)C(=O)N1CCC[C@H]1C(=O)O

>  <ESI positive response factor>
3.2e+17

$$$$
>  <Compound>
CN(C)N/N=C1/N=CN=C1C(N)=O

>  <ESI positive response factor>
2.45e+15

$$$$

# evaluate next
Q: Any idea what ESI positive response factor was measured for `CNC(=O)Oc1cccc2c1OC(C)(C)C2` ?
Result: 8.68e+16

====

Entries and their ESI positive response factor
# Protocol summary: ESI positive response factor (isotope-corrected peak area per molar concentration) in SFC/ESI/HRMS (area units per M); higher = higher ionization efficiency
# Test conditions: 0.175 µM
Just the number, please.

>  <Compound>
CCNC(=O)[C@H](C)OC(=O)Nc1ccccc1

>  <Measured attribute>
ESI positive response factor

>  <Readout value>
6.12e+16

$$$$

Q: Any idea what ESI positive response factor was measured for `CCNc1nc(Cl)nc(NC(C)C)n1` ?
Result: 9.03e+17

Q: Follow-up item: CC(=O)NCCNC(C)=O [N,N'-Ethylenebisacetamide]
Result: 3.9e+16

Q: Follow-up item: `COc1cc(Cc2cnc(N)nc2N)cc(OC)c1OC`
Result: 3.13e+17

Q: Follow-up item: `CC(C)C[C@H](CN)CC(=O)O`
Result: 1.55e+16

Q: Follow-up item: `CN1CCN(C)C1=O`
Result: 6.53e+16

====

# Protocol summary: ESI positive response factor (isotope-corrected peak area per molar concentration) in SFC/ESI/HRMS (area units per M); higher = higher ionization efficiency
# Test conditions: 0.0175 µM
Measured attribute: ESI positive response factor

Below, 5 molecules whose answers are already recorded.
>  <Molecule>
O=c1ccnc[nH]1

>  <Measured attribute>
ESI positive response factor

>  <Readout value>
1.78e+16

$$$$
>  <Molecule>
CCNc1nc(Cl)nc(NC(C)C)n1

>  <Measured attribute>
ESI positive response factor

>  <Readout value>
1.04e+18

$$$$
>  <Molecule>
CN=C(NC#N)NCCSCc1nc[nH]c1C

>  <Measured attribute>
ESI positive response factor

>  <Readout value>
6.5e+16

$$$$
>  <Molecule>
NC(=O)C1(N2CCCCC2)CCN(CCCC(=O)c2ccc(F)cc2)CC1

>  <Measured attribute>
ESI positive response factor

>  <Readout value>
4.81e+17

$$$$
>  <Molecule>
CNC(=O)CSP(=S)(OC)OC [Dimethoate]

>  <Measured attribute>
ESI positive response factor

>  <Readout value>
5.46e+16

$$$$

Q: Any idea what ESI positive response factor was measured for `CN1CCN(C)C1=O` ?
Result: 6.51e+16

Q: Follow-up item: `CCC1(c2ccccc2)C(=O)NCNC1=O`
Result: 8.94e+16

Q: Follow-up item: `Cn1c(=O)c2c(ncn2C)n(C)c1=O`
Result: 2.34e+17
